Biological target: 5-HT2A receptor (Homo sapiens, UniProt P28223)
Sequence (P28223 whole entry): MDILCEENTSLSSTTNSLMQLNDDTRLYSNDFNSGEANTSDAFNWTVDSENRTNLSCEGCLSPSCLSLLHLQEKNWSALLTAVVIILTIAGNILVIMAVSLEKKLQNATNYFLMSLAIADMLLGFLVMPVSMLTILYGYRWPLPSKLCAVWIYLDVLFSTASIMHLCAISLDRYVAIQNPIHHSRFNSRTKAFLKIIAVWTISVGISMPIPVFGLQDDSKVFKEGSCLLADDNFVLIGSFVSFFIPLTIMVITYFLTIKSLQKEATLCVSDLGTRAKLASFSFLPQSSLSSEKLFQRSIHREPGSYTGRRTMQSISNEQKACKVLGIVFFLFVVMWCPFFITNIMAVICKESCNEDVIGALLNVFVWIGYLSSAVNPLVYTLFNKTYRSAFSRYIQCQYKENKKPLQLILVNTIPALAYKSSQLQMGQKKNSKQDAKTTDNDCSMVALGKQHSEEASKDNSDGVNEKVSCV
Assay: PathHunter β-Arrestin assay, agonist mode, 5-HT2A
Format: cell-based
ENDPOINT_LABEL: EC50 (nM)
Answer with a number only, understood to be in nM.

API: value(readout=EC50, system=5-HT2A receptor (Homo sapiens, UniProt P28223)) for record COc1cc(S(C)(=N)=O)c(OC)cc1CCNCc1ccccc1OC (stereo not drawn) [Compound 5]
3.2

What reported EC50 corresponds to COc1cc(S(C)(=N)=O)c(OC)cc1CCNCc1cc(C)cc(Cl)c1 (stereo not drawn) [Compound 1] on 5-HT2A receptor (Homo sapiens, UniProt P28223)?
25

Notebook: pull reported EC50 for 5-HT2A receptor (Homo sapiens, UniProt P28223), entry COc1cc(S(C)(=N)=O)c(OC)cc1CCNCc1cc(C)cc(Cl)c1 (single isomer, unassigned) [Compound 3]
13.6

###

Biological target: 5-HT2C receptor (Homo sapiens, UniProt P28335)
Sequence (P28335 33-458): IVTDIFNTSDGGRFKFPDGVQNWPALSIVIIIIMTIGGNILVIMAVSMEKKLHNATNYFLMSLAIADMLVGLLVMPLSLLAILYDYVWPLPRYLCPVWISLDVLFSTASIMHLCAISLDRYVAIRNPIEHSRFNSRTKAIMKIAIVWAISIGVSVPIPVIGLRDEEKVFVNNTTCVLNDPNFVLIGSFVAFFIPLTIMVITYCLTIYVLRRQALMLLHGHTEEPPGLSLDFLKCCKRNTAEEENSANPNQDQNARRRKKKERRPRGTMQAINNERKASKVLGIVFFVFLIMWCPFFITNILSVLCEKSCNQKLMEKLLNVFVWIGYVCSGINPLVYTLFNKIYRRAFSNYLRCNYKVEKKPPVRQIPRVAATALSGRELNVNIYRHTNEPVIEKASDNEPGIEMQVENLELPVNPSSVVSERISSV
Test: Calcium mobilization (Ca++ flux) assay, agonist mode, 5-HT2C
Consider the following compounds; for each one, report its pEC50.
Scale: negative log10 of molar concentration, which is what pEC50 denotes.

Report pEC50 for COc1cc(S(C)(=N)=O)c(OC)cc1CCNCc1cc(C)cc(Cl)c1 (single isomer, unassigned) tested on 5-HT2C receptor (Homo sapiens, UniProt P28335).
5.83

Lab request: please report pEC50 under test system 5-HT2C receptor (Homo sapiens, UniProt P28335) for COc1cc(S(C)(=N)=O)c(OC)cc1CCNCc1ccccc1OC (centres unmarked)
8.44

###

Molecular target: 5-HT2B receptor (Homo sapiens, UniProt P41595)
Sequence (P41595 whole entry): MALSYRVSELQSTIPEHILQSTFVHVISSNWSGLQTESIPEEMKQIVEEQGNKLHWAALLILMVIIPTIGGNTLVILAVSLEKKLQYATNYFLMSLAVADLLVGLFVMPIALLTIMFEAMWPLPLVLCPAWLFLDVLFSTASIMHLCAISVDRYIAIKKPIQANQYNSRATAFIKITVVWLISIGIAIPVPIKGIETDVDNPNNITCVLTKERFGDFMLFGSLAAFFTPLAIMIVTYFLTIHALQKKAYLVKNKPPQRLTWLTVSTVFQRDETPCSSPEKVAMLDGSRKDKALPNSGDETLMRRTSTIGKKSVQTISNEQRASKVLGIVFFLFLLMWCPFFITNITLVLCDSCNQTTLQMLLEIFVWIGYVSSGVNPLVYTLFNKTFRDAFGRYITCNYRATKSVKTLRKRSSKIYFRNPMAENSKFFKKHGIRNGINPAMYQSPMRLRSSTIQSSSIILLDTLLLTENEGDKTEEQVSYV
Assay: Calcium mobilization (Ca++ flux) assay, agonist mode, 5-HT2B
Protocol: The Calcium No-Wash^PLUS assay monitors the activation of a GPCR via Gq secondary messenger signaling in a live cell, non-imaging assay format. Calcium mobilization in PathHunter® cell lines or other cell lines stably expressing Gq-coupled GPCRs is monitored using a calcium-sensitive dye that is loaded into cells. GPCR activation by a compound result in the release of calcium from intracellular stores and an increase in dye fluorescence that is measured in real-time. […]
ENDPOINT_LABEL: EC50

# get_value(readout= EC50, system= 5-HT2B receptor (Homo sapiens, UniProt P41595)) for COc1cc(S(C)(=N)=O)c(OC)cc1CCNCc1cc(C)cc(Cl)c1 (single isomer, unassigned) [Compound 3]
> 1000 nM

Lab note: need EC50 with 5-HT2B receptor (Homo sapiens, UniProt P41595) for entry COc1cc(S(C)(=N)=O)c(OC)cc1CCNCc1cc(C)cc(Cl)c1 (centres unmarked) [Compound 1] , please look it up.
> 1000 nM

###

Molecular target: UniProt P28223
Test: Calcium mobilization (Ca++ flux) assay, agonist mode, 5-HT2A
Format: cell-based
Settings: agonist mode; FLIPR calcium mobilization
ENDPOINT_LABEL: EC50 (nM)
Report only the number, with the unit nM understood.

Fill in the blank: the reported EC50 of COc1cc(S(C)(=N)=O)c(OC)cc1CCNCc1cc(C)cc(Cl)c1 (stereo not drawn) [Compound 1] is ____.
4.1

Dear colleague, I am looking for the recorded EC50 of the following molecule: COc1cc(S(C)(=N)=O)c(OC)cc1CCNCc1ccccc1OC (stereo not drawn) [Compound 5]
1.7

Param item = COc1cc(S(C)(=N)=O)c(OC)cc1CCNCc1cc(C)cc(Cl)c1 (single isomer, unassigned) [Compound 3] ; retrieve measured EC50.
2.4
